assay: CREB reporter modulators without forskolin, primary screen, cell-based, PC12, CRE-LacZ reporter, unstimulated (AID 1145); settings: no forskolin, luminescence, 4.5 h, higher = more signal, called active from +8 up or from −8 down
Recorded z-score by entry
ASSAY METRIC: z-score

                                    compound  observed_measurement
 0  COc1ccc(COC(=O)NN=C2C[C@@H](O)[C@@H](O)[C@@H]3[C@@H]4C(=O)N(C(C)(C)C)C(=O)[C@@H]4CC[C@@H]23)cc1                 0.973
 1  CCOC(=O)[C@H](CC(C)C)NC(=O)CCC1CC(OC(=O)NCCc2ccc(F)cc2)CC2(CCCC(COC(=O)NCCOC)O2)O1 (stereo not given in full)                 0.198
 2  CO[C@@H]1COC(=O)[C@@H]2CCCN2C(=O)[C@@H](C)COC(=O)CCC[C@H]1C                 0.355
 3  CC(C)=NOC(C)CN1CCCCc2nc(C)c(C)cc21 (stereo not given)                -0.236
 4  COC(=O)[C@H](C)NC(=O)CCC1CC(OC(=O)NCCc2ccc(F)cc2)CC2(CCCC(COC(=O)NCc3ccccc3)O2)O1 (stereo not given in full)                 0.199
 5  COc1ccc(COC(=O)NN=C2C[C@@H](O)[C@@H](O)[C@@H]3[C@@H]4C(=O)N(C5CCCCC5)C(=O)[C@@H]4CC[C@@H]23)cc1                  2.32
 6  CCOC(=O)CCN1C(=O)[C@H]2[C@H]3[C@H](O)[C@H](O)CC(=NO[C@@H]4O[C@H](CO)[C@@H](O)[C@H](O)[C@H]4O)[C@@H]3CC[C@H]2C1=O                -0.748
 7  CC(CCC(=O)OC[C@H]1O[C@H](C#Cc2ccccc2)C=C[C@@H]1Oc1ccc(C)cc1)=NO[C@@H](C)c1cc(-c2c(C)cc(C)cc2C)no1                 0.085
 8  CCOC(=O)[C@H](Cc1ccccc1)NC(=O)CCC1CC(OC(=O)NCc2ccc3c(c2)OCO3)CC2(CCCC(COC(=O)NCCOC)O2)O1 (stereo not given in full)                -0.256
 9  CC(C)=CCCC(C)=CCON=C1C[C@@H](O)[C@@H](O)[C@@H]2[C@@H]3C(=O)N([C@@H](C)c4ccccc4)C(=O)[C@@H]3CC[C@@H]12                -0.834
10  CCOC(=O)CCN1C(=O)[C@H]2[C@H]3[C@H](O)[C@H](O)CC(=NOCC(C)C)[C@@H]3CC[C@H]2C1=O                 0.424
11  C=CC[C@@H]1C=C[C@H](ON=C[C@@H](NS(=O)(=O)c2ccc(C)cc2)[C@H](C)C=CCC(=O)OC)[C@@H](CO)O1                 0.848
12  C[C@@H](c1ccccc1)N1C(=O)[C@H]2[C@H]3[C@H](O)[C@H](O)CC(=NNC(=O)OCc4ccccc4)[C@@H]3CC[C@H]2C1=O                 -0.38
13  CO[C@@H](C(C)C)[C@@H](C)C1OC(=O)CC1O (stereo not given in full)               -0.0673
14  CC(CCN1CCc2nc(-c3ccccc3)c(-c3ccccc3)cc2C1)=NO[C@H](C)c1cn([C@H](CO)Cc2ccccc2)nn1                 0.987
